system: Candida albicans; conditions: 20 µM
Description: Antifungal activity against Candida albicans ATCC 90028 (CO-ADD:FG_001); MIC in YNB media using NBS plates, by OD630
Results with a measured potency or affinity are listed apart.
Inhibition below 4% gives false (0); Inhibition at or above it gives true (1).

{"compound": "N#Cc1nc(-c2ccccc2)oc1S(=O)(=O)c1ccc(Cl)cc1", "subject of test": "Candida albicans", "class name": "false (0)"}
{"compound": "Cc1nnc(NC(=O)c2cn(-c3ccccc3)nc2-c2ccccc2C)o1", "subject of test": "Candida albicans", "class name": "true (1)"}
{"compound": "CCC(Sc1nc2ccccc2o1)C(=O)Nc1nnc(C)s1 (stereo unspecified)", "subject of test": "Candida albicans", "class name": "true (1)"}
{"compound": "O=C(Nc1cnc2ccccc2c1)c1cccc(-n2cnnn2)c1", "subject of test": "Candida albicans", "class name": "true (1)"}
{"compound": "O=C1COCc2ccc(Br)cc2N1Cc1ccc(C(F)(F)F)cc1", "subject of test": "Candida albicans", "class name": "true (1)"}
{"compound": "Nc1ncnc2c1c(Cc1cccc3ccccc13)nn2CC1CCNCC1", "subject of test": "Candida albicans", "class name": "false (0)"}
{"compound": "Cc1ccc2[nH]c3c(NCCN(C)C)ncnc3c2c1", "subject of test": "Candida albicans", "class name": "false (0)"}
{"compound": "NS(=O)(=O)c1cccc(-c2ccc3ncc(N4CCOCC4)nc3c2)c1", "subject of test": "Candida albicans", "class name": "true (1)"}
{"compound": "O=C(Nc1ccnc(-c2cccnc2)n1)c1cc(C(F)(F)F)cc(C(F)(F)F)c1", "subject of test": "Candida albicans", "class name": "false (0)"}
{"compound": "N#Cc1ccc(-c2cnc(N)c(-c3ccc(C(N)=O)cc3)n2)cc1", "subject of test": "Candida albicans", "class name": "true (1)"}

###

test system: Klebsiella pneumoniae; conditions: Concentration 20 uM; ASSAY_TEST Inhibition of Bacterial Growth; detection method Absorption (OD600); MEDIA CAMHB; plate type 384well; NBS; CORNING #3640; time 18 hr
Description: Antibacterial activity against Klebsiella pneumoniae MDR ATCC 70063 (CO-ADD:GN_003); MIC in CAMBH media using NBS plates, by OD(600)
Entries with a potency or affinity are not part of this list.
# Inhibition per entry

{"compound": "CN(C)CCNC(=O)N1CCCN(c2ncnc3cc(-c4ccccc4)sc23)CC1", "subject of test": "Klebsiella pneumoniae", "Inhibition [%]": 15.92}
{"compound": "O=C(Cn1ccnc1[N+](=O)[O-])NCc1ccccc1", "subject of test": "Klebsiella pneumoniae", "Inhibition [%]": 18.48}
{"compound": "CC(Oc1ccccc1)C(=O)Nc1nc(-c2ccccn2)cs1 (stereo not given)", "subject of test": "Klebsiella pneumoniae", "Inhibition [%]": -2.79}
{"compound": "Cl.NCCCC(N)(C(=O)O)C(F)F.O (stereo not given) [EFLORNITHINE HYDROCHLORIDE]", "subject of test": "Klebsiella pneumoniae", "Inhibition [%]": 11.19}
{"compound": "CNc1snc(C)c1C(=O)NCCOc1ccc(OC)cc1", "subject of test": "Klebsiella pneumoniae", "Inhibition [%]": 10.83}
{"compound": "COc1cccc(OCC(=O)c2ccc(Br)cc2)c1", "subject of test": "Klebsiella pneumoniae", "Inhibition [%]": -4.37}
{"compound": "CC(C)/N=c1\\cc2n(-c3ccc(Cl)cc3)c3ccccc3nc-2cc1Nc1ccc(Cl)cc1", "subject of test": "Klebsiella pneumoniae", "Inhibition [%]": 13.39}
{"compound": "O=C(C1CCCCC1)N1CC(=O)N2CCc3ccccc3C2C1 (stereo not given)", "subject of test": "Klebsiella pneumoniae", "Inhibition [%]": 12.46}
{"compound": "c1ccc(Oc2ccc(-c3cc(N4CCOCC4)[nH]n3)cc2)cc1", "subject of test": "Klebsiella pneumoniae", "Inhibition [%]": 8.77}
{"compound": "CCOC(=O)c1cc(-c2csc(Nc3c(C)cc(C)cc3C)n2)on1", "subject of test": "Klebsiella pneumoniae", "Inhibition [%]": 16.59}
